Target: Human wild-type receptor tyrosine kinase protein Axl (residues 505-811) (Homo sapiens (Human), UniProt P30530)
Sequence (P30530 505-811): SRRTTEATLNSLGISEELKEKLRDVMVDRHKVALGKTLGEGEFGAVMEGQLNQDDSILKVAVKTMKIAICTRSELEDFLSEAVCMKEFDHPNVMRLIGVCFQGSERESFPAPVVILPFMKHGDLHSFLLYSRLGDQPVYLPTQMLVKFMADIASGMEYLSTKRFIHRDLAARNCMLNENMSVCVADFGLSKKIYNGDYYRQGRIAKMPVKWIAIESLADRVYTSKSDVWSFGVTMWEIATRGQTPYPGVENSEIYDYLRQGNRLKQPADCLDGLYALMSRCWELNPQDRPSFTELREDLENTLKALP
pKi: −log10 of the molar value.
valueType: pKi

Request: Recorded pKi of COC[C@@H](C)Oc1nc(C(=O)NC23CC(C2)C3)nc(N2CCC(c3c[nH]c4nccc(OC)c34)CC2)n1 (single isomer, unassigned) [Example 505] , please.
Response: > 10.09

Request: Recorded pKi of COc1ccnc2[nH]cc(C3CCN(c4cc(C(=O)N[C@H](C)CO)nc(OC[C@H]5CCCO5)n4)CC3)c12 [Example 459] , please.
Response: > 10.89

Request: Recorded pKi of COc1ccnc2[nH]nc(C3CCN(c4nc(OC[C@H]5C[C@H]5C#N)nc(C(=O)NC5CCC5)n4)CC3)c12 [Example 501] , please.
Response: > 9.39

Request: Recorded pKi of COC[C@@H](C)Oc1nc(C(=O)NC2CCC2)nc(N2CCC(c3c[nH]c4nccc(OC)c34)CC2)n1 [Example 502] , please.
Response: > 10.09

Request: Recorded pKi of COc1ccnc2[nH]nc(C3CCN(c4cc(C(=O)N[C@H](C)CO)nc(OCc5ccccc5)n4)CC3)c12 [Example 415] , please.
Response: > 10.89

Request: Recorded pKi of C[C@H](NC(=O)c1nc(OCC2CC2)nc(N2CCC(COc3cc(-c4cn(C)cn4)cnc3N)CC2)n1)C(F)(F)F [Example 391] , please.
Response: > 10.89

Request: Recorded pKi of COc1ccnc2[nH]cc(C3CCN(c4cc(C(=O)N[C@H](C)CO)nc(OCC5(C#N)CC5)n4)CC3)c12 [Example 387] , please.
Response: > 10.74

Request: Recorded pKi of COc1ccnc2[nH]cc(C3CCN(c4nc(OC[C@H]5C[C@H]5C#N)nc(C(=O)NC56CC(C5)C6)n4)CC3)c12 (single isomer, unassigned) [Example 504] , please.
Response: > 10.09
